Values compiled from patent US20260132123A1.

# assayed-target: 17β-HSD10 (Homo sapiens)
# Construct: Histev (histidine tag with TEV site) (N, cleaved yes); made in house; host or cells: E. coli BL21-CodonPlus
# assay-remarks: 17β-HSD10 (ABAD) enzyme inhibition assay, NADH oxidation read at 340 nm (primary screen and dose response)
# Type: biochemical
# test-settings: recombinant 17βHSD10 enzyme assay, curve fit
assay-endpoint: Hill Slope

# count of solved cases: 6
| compound | assayed-target | observed |
| --- | --- | --- |
| Cc1ccsc1C(=O)N1CCC[C@H]1c1ccccc1-c1cccc(C(F)(F)F)c1 [ESC1002320] | 17β-HSD10 (Homo sapiens) | 0.91 |
| COc1cccc(-c2ccccc2[C@@H]2CCCN2C(=O)c2[nH]ncc2Cl)c1 (racemic) [ESC1002626] | 17β-HSD10 (Homo sapiens) | 1.6 |
| CC(C)CN(C(=O)c1ccccc1C(F)(F)F)c1cccc(N(C)Cc2c[nH]cn2)c1 [ESC1002493] | 17β-HSD10 (Homo sapiens) | 0.75 |
| COc1ccc(-c2ccccc2C2CCCN2C(=O)c2sccc2C)cn1 (racemic) [ESC1002082] | 17β-HSD10 (Homo sapiens) | 1.1 |
| Cc1ccsc1C(=O)N1CCC[C@H]1c1ccccc1-c1ccc(Cl)c(C(F)(F)F)c1 [ESC1002327] | 17β-HSD10 (Homo sapiens) | 0.84 |
| O=C(c1sccc1Cl)N1CCC[C@H]1c1ccccc1-c1cc(O)cc(F)c1 (single isomer, unassigned) [ESC1002801] | 17β-HSD10 (Homo sapiens) | 1.2 |

[A] CC(C)CN(C(=O)C1CCCCC1)c1cccc(N(C)Cc2cnc[nH]2)c1 [ESC1002166]
[B] Cc1ccsc1C(=O)N1CCC[C@H]1c1ccccc1-c1cccc(C)c1C [ESC1002339]
// pick larger Hill Slope from pair: A vs B State the label of the item chosen.
B
(B: 1.4, A: 0.93)

====

# assayed-target: 17β-HSD10 (Homo sapiens, UniProt Q99714)
# Construct: Histev (histidine tag with TEV site) (N, cleaved yes); made in house; host or cells: E. coli BL21-CodonPlus
# assay-remarks: 17β-HSD10 (ABAD) enzyme inhibition assay, NADH oxidation read at 340 nm (primary screen and dose response)
# Assay type: biochemical
# test-settings: recombinant 17βHSD10 enzyme assay
assay-endpoint: Max. Effect (%)

| molecule | assayed-target | assay-endpoint | observed |
| --- | --- | --- | --- |
| Cc1ccc(C(=O)Nc2cccc(N(C)Cc3cnc[nH]3)c2)cc1 | 17β-HSD10 (Homo sapiens, UniProt Q99714) | Max. Effect (%) | 3 |
| O=C(c1[nH]ncc1Cl)N1CCC[C@H]1c1ccccc1-c1cccc(O)c1 (single isomer, unassigned) [ESC1002798] | 17β-HSD10 (Homo sapiens, UniProt Q99714) | Max. Effect (%) | 18 |

[A] CC(C)CN(C(=O)c1ccccc1)c1cccc(N(C)Cc2cnc[nH]2)c1
[B] COc1cccc(-c2ccccc2[C@H]2CCCN2C(=O)Cc2ccccc2)c1
// pick larger Max. Effect (%) from pair: A vs B State the label of the item chosen.
A

====

# assayed-target: 17β-HSD10 (Homo sapiens, UniProt Q99714)
# Construct: Histev (histidine tag with TEV site) (N, cleaved yes)
# Sequence (Q99714 1-261): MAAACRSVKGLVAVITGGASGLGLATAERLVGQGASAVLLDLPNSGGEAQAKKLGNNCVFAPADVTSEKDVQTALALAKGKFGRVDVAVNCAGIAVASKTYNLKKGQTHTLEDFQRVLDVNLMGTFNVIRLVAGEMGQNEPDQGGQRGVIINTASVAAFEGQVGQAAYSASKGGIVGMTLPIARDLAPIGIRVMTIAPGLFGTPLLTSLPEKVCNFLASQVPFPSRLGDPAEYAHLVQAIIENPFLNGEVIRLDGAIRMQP
# assay-remarks: 17β-HSD10 (ABAD) enzyme inhibition assay, NADH oxidation read at 340 nm (primary screen and dose response)
# test-settings: recombinant 17βHSD10 enzyme assay
pEC50: −log10 of the molar value.
assay-endpoint: pEC50

# count of solved cases: 2
| molecule | pEC50 |
| --- | --- |
| O=C(c1[nH]ncc1Cl)N1CCC[C@H]1c1ccccc1-c1cccc(O)c1 (single isomer, unassigned) [ESC1002799] | 6.81 |
| Cn1cc(-c2ccccc2[C@@H]2CCCN2C(=O)c2sccc2Cl)cn1 (racemic) | 5.97 |

[a] COc1ccc(-c2ccccc2[C@@H]2CCCN2C(=O)c2sccc2Cl)cc1OC (racemic)
[b] O=C(c1sccc1Cl)N1CCC[C@H]1c1ccccc1-c1ccc(O)cc1 (racemic)
[c] Cc1ccc(C(=O)N(CC2CC2)c2cccc(N(C)Cc3c[nH]cn3)c2)cc1
[d] O=C(c1sccc1Cl)N1CCC[C@H]1c1ccccc1-c1ccc(F)c(O)c1 (single isomer, unassigned) [ESC1002838]
[e] Cc1ccsc1C(=O)N1CCC[C@@H]1c1ccccc1-c1c[nH]nc1C
Sort low-to-high on pEC50, please. Write the labels out in the order the request specifies.
e, c, a, b, d
(e: 5.69, c: 6.00, a: 6.24, b: 6.52, d: 7.29)

====

# assayed-target: 17β-HSD10 (Homo sapiens, UniProt Q99714)
# Construct: Histev (histidine tag with TEV site) (N, cleaved yes); made in house; host or cells: E. coli BL21-CodonPlus
# Sequence (Q99714 1-261): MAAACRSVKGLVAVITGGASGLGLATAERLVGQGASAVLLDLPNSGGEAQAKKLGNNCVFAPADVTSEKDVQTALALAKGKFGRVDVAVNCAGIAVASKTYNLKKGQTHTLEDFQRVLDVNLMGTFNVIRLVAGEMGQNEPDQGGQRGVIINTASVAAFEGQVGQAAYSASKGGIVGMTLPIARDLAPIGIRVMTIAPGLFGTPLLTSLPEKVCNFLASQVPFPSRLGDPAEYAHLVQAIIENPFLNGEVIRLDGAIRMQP
# assay-remarks: 17β-HSD10 (ABAD) enzyme inhibition assay, NADH oxidation read at 340 nm (primary screen and dose response)
# Format: biochemical
# test-settings: recombinant 17βHSD10 enzyme assay
assay-endpoint: EC50 (µM)

# count of solved cases: 5
| compound | assayed-target | uom | EC50 |
| --- | --- | --- | --- |
| O=C(c1sccc1Cl)N1CCC[C@H]1c1ccccc1-c1cncnc1 (racemic) [ESC1002698] | 17β-HSD10 (Homo sapiens, UniProt Q99714) | µM | 7.41 |
| Cc1ccsc1C(=O)N1CCC[C@H]1c1ccccc1-c1cccc(C(F)(F)F)c1 [ESC1002320] | 17β-HSD10 (Homo sapiens, UniProt Q99714) | µM | 0.603 |
| CCc1ccc(C(=O)N(CC(C)C)c2cccc(N(C)Cc3c[nH]cn3)c2)cc1 [ESC1002459] | 17β-HSD10 (Homo sapiens, UniProt Q99714) | µM | 0.832 |
| CC(C)CN(C(=O)CCc1ccccc1)c1cccc(N(C)Cc2cnc[nH]2)c1 [ESC1002168] | 17β-HSD10 (Homo sapiens, UniProt Q99714) | µM | 8.91 |
| O=C(c1sccc1Cl)N1CCC[C@H]1c1ccccc1-c1ccc(F)c(O)c1 (single isomer, unassigned) [ESC1002839] | 17β-HSD10 (Homo sapiens, UniProt Q99714) | µM | 4.17 |

[1] CC(C)CN(C(=O)c1ccccc1F)c1cccc(N(C)Cc2cn(C)cn2)c1 [ESC1002200]
[2] C#CCN(C)c1cccc(N(CC(C)C)C(=O)c2ccccc2F)c1 [ESC1002636]
Returns: the label, 1 or 2 , whose recorded EC50 is the lower number. State the label of the item chosen.
2
(2: 5.5 µM, 1: 9.12 µM)

[a] CC(C)CN(C(=O)c1ccccc1F)c1cccc(NCc2c[nH]cn2)c1 [ESC1002631]
[b] Cc1ccsc1C(=O)N1CCC[C@H]1c1ccccc1-c1ccc(N2CCOCC2)cc1 [ESC1002318]
Returns: the label, a or b , whose recorded EC50 is the lower number. State the label of the item chosen.
b
(b: 1.91 µM, a: 9.33 µM)

[I] COc1cccc(-c2ccccc2[C@@H]2CCCN2C(=O)c2sccc2C)c1 [ESC1002338]
[II] Cc1ccsc1C(=O)N1CCC[C@@H]1c1ccccc1-c1cccnc1 [ESC1002090]
// pick larger EC50 from pair: I vs II State the label of the item chosen.
II

====

# assayed-target: 17β-HSD10 (Homo sapiens, UniProt Q99714)
# Construct: Histev (histidine tag with TEV site) (N, cleaved yes); made in house; host or cells: E. coli BL21-CodonPlus
# assay-remarks: 17β-HSD10 (ABAD) enzyme inhibition assay, NADH oxidation read at 340 nm (primary screen and dose response)
# Assay type: biochemical
# test-settings: recombinant 17βHSD10 enzyme assay, curve fit
assay-endpoint: Hill Slope

| molecule | Hill Slope |
| --- | --- |
| Cc1ccsc1C(=O)N1CCC[C@H]1c1ccccc1-c1ccc(C#N)cc1 | 0.93 |
| O=C(c1sccc1Cl)N1CCC[C@H]1c1ccccc1-c1ccc(F)c(O)c1 (single isomer, unassigned) [ESC1002838] | 1.2 |
| O=C(c1sccc1Cl)N1CCC[C@H]1c1ccccc1-c1ccc(O)cc1 (racemic) | 1.2 |
| COc1ccc(-c2ccccc2[C@H]2CCCN2C(=O)c2sccc2C)cc1 | 1.1 |
| COc1ccc(C(=O)N(CC(C)C)c2cccc(N(C)Cc3c[nH]cn3)c2)c(F)c1 | 1.1 |
| Cc1ccsc1C(=O)N1CCC[C@H]1c1ccccc1-c1ccc(S(C)(=O)=O)cc1 | 1 |
| COc1ccc(-c2ccc(-c3cn[nH]c3)s2)c(OC)c1OC | 1.2 |
| Cc1ccc(-c2ccccc2[C@@H]2CCCN2C(=O)c2sccc2C)cc1 | 1.3 |
